The measurements presented in this section are drawn from PubChem BioAssay (NCI).

Assignment: determine reported GI50 for the given molecules.
# System: UACC-257 melanoma
# experiment: NCI tumour cell line growth inhibition, 48 h

Give GI50 for each of the items listed below.
1. CCc1ccc(Oc2nccc(-c3c(-c4ccc(F)cc4)ncn3C3CCNCC3)n2)cc1
2. O=[N+]([O-])c1ccc(Oc2cccc(C(F)(F)F)c2)c([N+](=O)[O-])c1
3. O=C1c2cccc3cccc(c23)C(=O)N1CC#Cc1ccc2c3c(cccc13)C(=O)N(CCN1CCNCC1)C2=O
4. O=C(CCCCCNC1=CC(=O)c2ccccc2C1=O)NCCC[Te]c1ccccc1
5. COc1ccc(-c2nnc(Nc3nc(O)c(C4=c5cc(OC(F)(F)F)ccc5=NC4=O)s3)o2)cc1
6. CCOC(=O)C1=C(C)NC(C)=C(C(=O)OCC)C1c1cc(Br)c(O)c(OC)c1

1. 4.34 µM
2. 5.46 µM
3. 18.5 µM
4. 2.4 µM
5. 13.2 µM
6. 12.6 µM

I would be grateful if you could provide GI50 for each of the following entries.
1. Cc1ccc2c(n1)C(=O)C(Cl)=C(Nc1ccc(N3CCN(C)CC3)cc1)C2=O
2. C/C(=C\CCc1ccsc1)CC/C=C(\C)CCCN1CCN(CCO)CC1
3. Cc1ccn2c(-c3csc(Nc4cccc(O)c4)n3)c(C)nc2c1

1: 1.7 µM; 2: 4.57 µM; 3: 3.48 µM

###

# System: LXFL 529 NSCLC
# experiment: NCI tumour cell line growth inhibition, 48 h
measured_metric: TGI

Below, 3 compounds whose answers are already recorded.
COC(=O)[C@H]1CC(=O)C=C2CCCC21 (stereo partly specified) : > 100 µM
Cc1nn2c(=O)n(-c3cccc(-n4nnc5c(-c6ccccc6)c(C)nn5c4=O)c3C)nnc2c1-c1ccccc1 : > 100 µM
Nc1nccc2c1ncn2C1C=C(CO)C(O)C1O (stereo unspecified) : > 1000 µM

Would you mind listing TGI for each of the following compounds?
1. CC(C)(C)C1CCP(=O)(c2ccccc2)CC1 (stereo unspecified)
2. COc1cccc2c1C(=O)c1c(O)c3c(c(O)c1C2=O)C[C@@](O)(C(C)=O)C[C@@H]3OC1CC(N(C)C)C(O)C(C)O1 (stereo partly specified)
3. O=C(O)/C(=C/c1ccccc1[N+](=O)[O-])c1cccs1

["> 100 µM", "1 µM", "> 100 µM"]

###

# System: LOX IMVI melanoma
# experiment: NCI tumour cell line growth inhibition, 48 h
# class assignment by measured TGI: LOW: < 9 µM; MEDIUM: ≥ 9 µM and < 40 µM; HIGH: ≥ 40 µM

Cc1ccc(-c2c3c(N)nc(-c4ccncc4)nc3nc3c2c(C)nn3-c2ccccc2)cc1 : MEDIUM

Using the reported TGI, which band applies to `COc1ccccc1NC(=O)CC(=O)n1nc(-c2ccccc2)c(N=Nc2ccccc2[N+](=O)[O-])c1-c1ccccc1` ?
HIGH

Lab note: sort `Cc1ccc(C)c(NC(=O)C(=O)CC(=O)c2cccc3ccccc23)c1` into the matching TGI band.
HIGH

Bin? `O=S(=O)(c1ccccc1)[C@@H]1[C@H]2C=C[C@](CS)(O2)[C@H]1S(=O)(=O)c1ccccc1`
HIGH

Consider CC1(C)CC(=O)C(CC2C(=O)c3ccccc3C2=O)C(=O)C1C(=O)C(=O)Nc1cccc2ccc(O)cc12 (configuration not stated) . To which TGI class does it belong?
HIGH

Into which bin does this compound go? Cc1ccc(C2NC(=S)N3C(c4ccc(C)cc4)NC(=S)N23)cc1 (configuration not stated)
MEDIUM

Band for `O=C1C=Cc2c1csc2Br` ?
HIGH

Which class does `NS(=O)(=O)c1ccc(N=Nc2ccc(O)c(O)c2)cc1` fall in?
MEDIUM

Kindly state the category for this compound: `CCn1c(SCC(=O)NNC(=S)Nc2ccc(Cl)cc2)nc2ccccc2c1=O`
HIGH

Pick a category. Item: `COc1cc(CCC(=O)O)c2cc3ccccc3cc2c1O`
HIGH

Pick a category. Item: `COc1ccc(/C=C/c2ccnc3ccccc23)cc1`
MEDIUM
